- SYSTEM TESTED: Hall (A1) toxin (UniProt P0DPI0 2-1296)
pKd: −log10 of the molar value.

BINDER: WR1(T) (HuC25 derivative) (antibody, V domains shown) VH: QVQLQESGGGLVQPGGSLRLSCAASGFTSSDHYMYWVRQAPGKGLEWVATISDGGSYTYYPDSVKGRFTTSRDNSKNTLYLQMNSLRAEDTAIYYCSRYRYDDAMDYWGQGTLVTVSS VL: EIVLTQSPATLSLSPGERATISCRASESVDSYGHSFMQWYQQKPGQAPRLLIYRASNLEPGIPARFSGSGSGTDFTLTISSLEPEDFAVYYCQQGNEVPFTFGQGTKVEIKR
pKd: 9.51

BINDER: WR1(V) (HuC25 derivative) (antibody, V domains shown) VH: QVQLQESGGGLVQPGGSLRLSCAASGFTSSDHYMYWVRQAPGKGLEWVATISDGGSYTYYPDSVKGRFTVSRDNSKNTLYLQMNSLRAEDTAIYYCSRYRYDDAMDYWGQGTLVTVSS VL: EIVLTQSPATLSLSPGERATISCRASESVDSYGHSFMQWYQQKPGQAPRLLIYRASNLEPGIPARFSGSGSGTDFTLTISSLEPEDFAVYYCQQGNEVPFTFGQGTKVEIKR
pKd: 9.35

BINDER: 3D12.3-8 (antibody, V domains shown) VH: QVQLVQSGGGVVHPGRSLKLSCAGSGFTFSDYDMHWVRQAPGKGLEWVAVIWFDGTEKYSAESVKGRFTISRDNSKNTLFLQMNSLRADDTAVYYCAREPDWLLWGDRGALDVWGQGTTVTVSS VL: DIVMTQSPSTLSASVGDRVTITCRASQSISSWLAWYQQKPGKAPKLLMYGASSLGSGVPSRFSGSGSGTEFTLTISSLHPDDFAAYYCQHYNTYPYTFGQGTKLEIKR
pKd: 10.68

BINDER: 3D12.3-1 (RAZ1) (antibody, V domains shown) VH: QVQLVQSGGGVVHPGRSLKLSCAGSGFTFSDYDMHWVRQAPGKGLEWVAVMWFDGTEKYSAESVKGRFTISRDNSKNTLFLQMNSLRADDTAVYYCAREPDWLLWGDRGALDVWGQGTTVTVSS VL: DIVMTQSPSTLSASVGDRVTITCWASQSISSRLAWYQQKPGKAPKLLMYEATSLGSGVPSRFSGSGSGTEFTLTISSLQPDDFAAYYCQHYDTYPYTFGQGTKLEIKR
pKd: 10.77

BINDER: 3D12 (wild type, as tested in Table 12) (antibody, V domains shown) VH: QVQLVQSGGGVVHPGRSLKLSCAGSGFTFSDYDMHWVRQAPGKGLEWVAVMWFDGTEKYSAESVKGRFTISRDNSKNTLFLQMNSLRADDTAVYYCAREPDWLLWGDRGALDVWGQGTTVTVSS VL: DIVMTQSPSTLSASVGDRVTITCRASQSISSWLAWYQQKPGKAPKLLMYEASSLESGVPSRFSGSGSGTEFTLTISSLQPDDFAAYYCQHYNTYPYTFGQGTKLEIKR
pKd: 9.03

BINDER: AR1 (affinity improved HuC25) (antibody, V domains shown) VH: QVQLQESGGGLVQPGGSLRLSCAASGFTFSDYYMYWVRQAPGKGLEWVATISDGGSYTYYPDSVKGRFTISRDNSKNTLYLQMNSLRAEDTAIYYCSRYRYDDAMDYWGQGTLVTVSS VL: EIVLTQSPATLSLSPGERATISCRASESVDSYGHSFMQWYQQKPGQAPRLLIYRASNLEPGIPARFSGSGSGTDFTLTISSLEPEDFAVYYCQQGNEVPFTFGQGTKVEIKR
pKd: 9.70

BINDER: Humanized C25 (HuC25) (antibody, V domains shown) VH: QVQLQESGGGLVQPGGSLRLSCAASGFTFSDYYMYWVRQAPGKGLEWVATISDGGSYTYYPDSVKGRFTISRDNSKNTLYLQMNSLRAEDTAMYYCSRYRYDDAMDYWGQGTLVTVSS VL: EIVLTQSPATLSLSPGERATISCRASESVDSYGHSFMQWYQQKPGQAPRLLIYRASNLEPGIPARFSGSGSGTDFTLTISSLEPEDFAVYYCQQSNEDPFTFGQGTKVEIKR
pKd: 8.91

BINDER: AR2 (affinity improved HuC25) (antibody, V domains shown) VH: QVQLQESGGGLVQPGGSLRLSCAASGFTFSDHYMYWVRQAPGKGLEWVATISDGGSYTYYPDSVKGRFTTSRDNSKNTLYLQMNSLRAEDTAIYYCSRYRYDDAMDYWGQGTLVTVSS VL: EIVLTQSPATLSLSPGERATISCRASESVDSYGHSFMQWYQQKPGQAPRLLIYRASNLEPGIPARFSGSGSGTDFTLTISSLEPEDFAVYYCQQGNEVPFTFGQGTKVEIKR
pKd: 10.33

BINDER: 3D12.3-10 (antibody, V domains shown) VH: QVQLVQSGGGVVHPGRSLKLSCAGSGFTFSDYDMHWVRQAPGKGFEWVAVMWFDGTEKYSAESVKGRFTISRDNSKNTLFLQMNSLRADDTAVYYCAREPDRLLWGDRGALDVWGQGTTVTVSS VL: DIVMTQSPSTLSASVGDRVTITCRASQSISSWLAWYQQKPGKAPKLLMYEASSLGRGVPSRFSGSGSGTEFTLTISSLQPDDFAAYYCQHYSTYPYTFGQGTKLEIKR
pKd: 10.55

Every entry's value here was drawn from patent US20090324606A1.
